Target: His-tagged human recombinant DDR-2 kinase domain (His-TEV-DDR2 467-855 aa) (Homo sapiens)
Construct: His-TEV-DDR2 467-855 aa
Sequence (Q16832 467-855): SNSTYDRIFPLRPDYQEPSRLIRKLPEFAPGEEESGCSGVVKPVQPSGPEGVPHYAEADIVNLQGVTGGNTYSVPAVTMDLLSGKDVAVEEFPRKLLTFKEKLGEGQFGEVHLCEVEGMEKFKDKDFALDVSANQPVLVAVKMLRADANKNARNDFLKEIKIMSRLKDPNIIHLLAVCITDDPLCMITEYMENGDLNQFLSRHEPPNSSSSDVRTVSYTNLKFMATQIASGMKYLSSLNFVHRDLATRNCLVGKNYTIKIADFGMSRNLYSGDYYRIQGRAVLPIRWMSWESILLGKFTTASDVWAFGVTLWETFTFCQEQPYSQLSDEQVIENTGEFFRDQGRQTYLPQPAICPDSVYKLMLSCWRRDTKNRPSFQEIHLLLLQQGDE
Experiment: Autophosphorylation assay for biochemical activity testing of DDR2 (HTRF)
Details: biochemical DDR2 autophosphorylation
Experimental: The autophosphorylation assay was run in two steps: the enzymatic reaction in which His-tagged DDR2 with ATP as co-substrate phosphorylates itself and the detection reaction where a time resolved FRET between XL665® labelled anti-6His antibody bound to the His-tag of the enzyme and cryptate labelled anti-phospho-Tyrosine-antibody (PT66) bound the phosphorylated Tyrosine residue of DDR2 was analysed. The autophosphorylation activity was detectable directly via the increase in HTRF signal. […]
measured-property: IC50 (µM)

smiles-record: CNC(=O)c1cc(Oc2ccc(CNC(=O)Nc3cc(C)ccn3)cc2)ccn1
measured-target: His-tagged human recombinant DDR-2 kinase domain (His-TEV-DDR2 467-855 aa) (Homo sapiens)
IC50 [µM]: 0.57

1. Cc1ccc(C)c(NC(=O)NCc2ccc(Oc3ccncc3)cc2)c1
2. Cc1cc2nccc(Oc3ccc(CNC(=O)Nc4ccccc4)cc3)c2o1
Query block: Out of 1 and 2 , name the one with the higher IC50. Respond with the label that goes with your answer.
Result block: 1
(1: 13 µM, 2: 0.65 µM)

----------
Target: His-tagged human recombinant DDR-2 kinase domain (His-TEV-DDR2 467-855 aa) (Homo sapiens, UniProt Q16832)
Construct: His-TEV-DDR2 467-855 aa
Sequence (Q16832 467-855): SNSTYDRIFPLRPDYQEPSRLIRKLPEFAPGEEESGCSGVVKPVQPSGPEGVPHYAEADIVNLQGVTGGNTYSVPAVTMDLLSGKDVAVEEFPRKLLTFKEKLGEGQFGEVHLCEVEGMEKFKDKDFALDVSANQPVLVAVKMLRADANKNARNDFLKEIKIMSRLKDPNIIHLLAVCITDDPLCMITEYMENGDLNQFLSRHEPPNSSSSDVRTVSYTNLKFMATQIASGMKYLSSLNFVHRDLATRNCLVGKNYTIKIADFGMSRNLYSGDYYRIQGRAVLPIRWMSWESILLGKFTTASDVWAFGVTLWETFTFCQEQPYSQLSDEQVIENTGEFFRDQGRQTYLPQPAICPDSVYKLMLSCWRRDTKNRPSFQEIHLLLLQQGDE
Test: Autophosphorylation assay for biochemical activity testing of DDR2 (HTRF)
Details: biochemical DDR2 autophosphorylation
pIC50: −log10 of the molar value.
measured-property: pIC50

A. CNC(=O)c1cc(Oc2ccc(CNC(=O)Nc3cc(C)ccc3OC3CCNCC3)cc2)ccn1
B. CSc1ccc(NC(=O)NCc2ccc(Oc3ccncc3)cc2)cc1
C. CNC(=O)c1cc(Oc2ccc(CNC(=O)Nc3cc(C(F)(F)F)ccc3OC)c(C)c2)ccn1
Query block: Going from lowest to highest recorded pIC50, rank the entries listed above. Returns: the labels listed in the requested order.
Result block: B, C, A
(B: 5.00, C: 6.74, A: 7.08)

a. CNC(=O)c1cc(Oc2ccc(CNC(=O)Nc3cc(C(F)(F)F)c(Cl)cc3OC3CCNCC3)cc2)ccn1
b. CNC(=O)c1cc(Oc2ccc(CNC(=O)Nc3ccccc3)cc2)ccn1
c. CNC(=O)c1cc(Oc2ccc(CNC(=O)Nc3cc(C(F)(F)F)c(Cl)cc3OCCN(C)C)cc2)ccn1
Query block: Rank order required: pIC50, descending. Returns: the labels listed in the requested order.
Result block: a, c, b

----------
Molecular target: His-tagged human recombinant DDR-2 kinase domain (His-TEV-DDR2 467-855 aa) (Homo sapiens, UniProt Q16832)
Construct: His-TEV-DDR2 467-855 aa
Test: Autophosphorylation assay for biochemical activity testing of DDR2 (HTRF)
Details: 4 nM DDR2 kinase domain, 150 μM ATP, 150 min at 22° C.
pIC50: −log10 of the molar value.
measured-property: pIC50

Use these answered entries as a reference point.
smiles-record: COc1ncc(Cl)cc1NC(=O)NCc1ccc(Oc2ccnc(C)c2)cc1
reading: 6.72
--
smiles-record: CNC(=O)c1cc(Oc2ccc(CNC(=O)Nc3cc(C(F)(F)F)cn(C)c3=O)cc2)ccn1
reading: 7.01

I. CNC(=O)c1cc(Oc2ccc(CNC(=O)Nc3cccnc3OC)cc2)ccn1
II. CNC(=O)c1cc(Oc2ccc(CNC(=O)Nc3ccccn3)cc2)ccn1
III. CNC(=O)c1cc(Oc2ccc(CNC(=O)Nc3cc(C(F)(F)F)cn(Cc4ccccc4)c3=O)cc2)ccn1
IV. CNC(=O)c1cc(Oc2ccc(CNC(=O)Nc3cc(C(F)(F)F)cn(C)c3=O)cc2C)ccn1
Query block: Rank order required: pIC50, descending. Returns: the labels listed in the requested order.
Result block: IV, III, I, II
(IV: 7.43, III: 6.59, I: 5.80, II: 5.42)

----------
Target: His-tagged human recombinant DDR-2 kinase domain (His-TEV-DDR2 467-855 aa) (Homo sapiens, UniProt Q16832)
Construct: His-TEV-DDR2 467-855 aa
Test: Autophosphorylation assay for biochemical activity testing of DDR2 (HTRF)
Settings: biochemical DDR2 autophosphorylation
Protocol: The autophosphorylation assay was run in two steps: the enzymatic reaction in which His-tagged DDR2 with ATP as co-substrate phosphorylates itself and the detection reaction where a time resolved FRET between XL665® labelled anti-6His antibody bound to the His-tag of the enzyme and cryptate labelled anti-phospho-Tyrosine-antibody (PT66) bound the phosphorylated Tyrosine residue of DDR2 was analysed. The autophosphorylation activity was detectable directly via the increase in HTRF signal. […]
measured-property: IC50 (nM)

Use these answered entries as a reference point.
smiles-record: COc1ccc(NC(=O)NCc2ccc(Oc3ccncc3)cc2)cc1
IC50, nM: 13000

smiles-record: CNC(=O)c1cc(Oc2ccc(CNC(=O)Nc3cc(C(F)(F)F)ccc3OCCO)cc2)ccn1
IC50, nM: 96

smiles-record: CNC(=O)c1cc(Oc2ccc(CNC(=O)Nc3cc(Cl)c(C)cc3OC)cc2C)ccn1
IC50, nM: 100

smiles-record: COc1cccc(NC(=O)NCc2ccc(Oc3ccncc3)cc2)c1
IC50, nM: 4000

smiles-record: CNCCOc1ccc(C(F)(F)F)cc1NC(=O)NCc1ccc(Oc2ccnc(C(=O)NC)c2)cc1
IC50, nM: 64

I. CNC(=O)c1cc(Oc2ccc(CNC(=O)Nc3cc(C)c(Cl)cc3OCCN(C)C(=O)OC(C)(C)C)cc2)ccn1
II. CNC(=O)c1cc(Oc2ccc(CNC(=O)Nc3cc(Cl)c(C)cc3OC)cc2)ccn1
Query block: Between the entries labeled I and II , whose measured IC50 is lower? Respond with the label that goes with your answer.
Result block: II

1. CCc1cccc(NC(=O)NCc2ccc(Oc3ccncc3)cc2)c1
2. CNC(=O)c1cc(Oc2ccc(CNC(=O)Nc3ccnc(Cl)c3)cc2)ccn1
Query block: Between the entries labeled 1 and 2 , whose measured IC50 is lower? Respond with the label that goes with your answer.
Result block: 1

----------
Biological target: His-tagged human recombinant DDR-2 kinase domain (His-TEV-DDR2 467-855 aa) (Homo sapiens)
Construct: His-TEV-DDR2 467-855 aa
Experiment: Autophosphorylation assay for biochemical activity testing of DDR2 (HTRF)
Conditions: biochemical DDR2 autophosphorylation
measured-property: IC50 (µM)

compound: CNC(=O)c1cc(Oc2ccc(CNC(=O)Nc3cc(C(F)(F)F)ccc3OCCN(C)C)cc2C)ccn1 [compound 150]
measured-property: IC50
reading: 0.042

compound: CNC(=O)c1cc(Oc2ccc(CNC(=O)Nc3cc(C)c(Cl)cc3OCCN3CCCC3)c(C)c2)ccn1 [compound 134]
measured-property: IC50
reading: 1.2

compound: O=C(NCc1ccc(Oc2ccncc2)cc1)Nc1ccc(OC(F)(F)F)cc1 [compound 55]
measured-property: IC50
reading: 7.5

compound: CNC(=O)c1cc(Oc2ccc(CNC(=O)Nc3cc(C(F)(F)F)c(Cl)cc3OC)cc2F)ccn1 [compound 231]
measured-property: IC50
reading: 0.1

compound: CNC(=O)c1cc(Oc2ccc(CNC(=O)Nc3cc(C)c(Cl)cc3OCCN3CCOCC3)cc2C)ccn1 [compound 138]
measured-property: IC50
reading: 0.31

P. CNC(=O)c1cc(Oc2ccc(CNC(=O)Nc3cc(Cl)c(C)cc3OCCN(C)C)cc2)ccn1 [compound 174]
Q. CNC(=O)c1cc(Oc2ccc(CNC(=O)Nc3cc(OC)ccc3OC)cc2)ccn1 [compound 20]
R. O=C(NCc1ccc(Oc2ccncc2)cc1)Nc1ccccc1 [compound 245]
Query block: In this exercise, place the 3 compounds in ascending sequence of their recorded IC50. Returns: the labels listed in the requested order.
Result block: Q, P, R

A. CNC(=O)c1cc(Oc2ccc(CNC(=O)Nc3cc(Cl)c(C)cc3OCCN3CCNCC3)cc2)ccn1 [compound 179]
B. COc1cc(Cl)c(C)cc1NC(=O)NCc1ccc(Oc2ccnc3cc(C)oc23)c(C)c1 [compound 252]
C. CNC(=O)c1cc(Oc2ccc(CNC(=O)Nc3cc(C(F)(F)F)c(Cl)cc3OCCN3CCCC3)cc2)ccn1 [compound 129]
D. CNC(=O)c1cc(Oc2ccc(CNC(=O)Nc3cc(Cl)c(C)cc3OCCNC(C)C)cc2)ccn1 [compound 183]
Query block: In this exercise, place the 4 compounds in ascending sequence of their recorded IC50. Returns: the labels listed in the requested order.
Result block: D, A, C, B
(D: 0.089 µM, A: 0.16 µM, C: 0.25 µM, B: 0.75 µM)
